targetOfAssay: P2, fluorescein-labelled proline-rich peptide from the SOS1 proline-rich domain (human, UniProt Q07889, fluorescein (FITC) label, position not stated)
protocolDescription: FP
outcomeMeasure: pKd
Keep in mind that pKd stands for -log10 of concentration in molar terms.

Inquiry: What does the data say about its pKd? Entry: ABI1 SH3 domain, GST cleaved (domain or fragment) NYIEKVVAIYDYTKDKDDELSFMEGAIIYVIKKNDDGWYEGVCNRVTGLFPGNYVESIMH
Reply text: 4.22
